Below: a set of entries, each annotated with reported DC50.
Molecular target: LRRK2^G2019S (Mus musculus, UniProt Q5S006, G2019S)
Construct: endogenous in cells; host or cells: LRRK2[G2019S] mouse embryonic fibroblasts (MEFs)
Sequence (Q5S006 whole entry G2019S): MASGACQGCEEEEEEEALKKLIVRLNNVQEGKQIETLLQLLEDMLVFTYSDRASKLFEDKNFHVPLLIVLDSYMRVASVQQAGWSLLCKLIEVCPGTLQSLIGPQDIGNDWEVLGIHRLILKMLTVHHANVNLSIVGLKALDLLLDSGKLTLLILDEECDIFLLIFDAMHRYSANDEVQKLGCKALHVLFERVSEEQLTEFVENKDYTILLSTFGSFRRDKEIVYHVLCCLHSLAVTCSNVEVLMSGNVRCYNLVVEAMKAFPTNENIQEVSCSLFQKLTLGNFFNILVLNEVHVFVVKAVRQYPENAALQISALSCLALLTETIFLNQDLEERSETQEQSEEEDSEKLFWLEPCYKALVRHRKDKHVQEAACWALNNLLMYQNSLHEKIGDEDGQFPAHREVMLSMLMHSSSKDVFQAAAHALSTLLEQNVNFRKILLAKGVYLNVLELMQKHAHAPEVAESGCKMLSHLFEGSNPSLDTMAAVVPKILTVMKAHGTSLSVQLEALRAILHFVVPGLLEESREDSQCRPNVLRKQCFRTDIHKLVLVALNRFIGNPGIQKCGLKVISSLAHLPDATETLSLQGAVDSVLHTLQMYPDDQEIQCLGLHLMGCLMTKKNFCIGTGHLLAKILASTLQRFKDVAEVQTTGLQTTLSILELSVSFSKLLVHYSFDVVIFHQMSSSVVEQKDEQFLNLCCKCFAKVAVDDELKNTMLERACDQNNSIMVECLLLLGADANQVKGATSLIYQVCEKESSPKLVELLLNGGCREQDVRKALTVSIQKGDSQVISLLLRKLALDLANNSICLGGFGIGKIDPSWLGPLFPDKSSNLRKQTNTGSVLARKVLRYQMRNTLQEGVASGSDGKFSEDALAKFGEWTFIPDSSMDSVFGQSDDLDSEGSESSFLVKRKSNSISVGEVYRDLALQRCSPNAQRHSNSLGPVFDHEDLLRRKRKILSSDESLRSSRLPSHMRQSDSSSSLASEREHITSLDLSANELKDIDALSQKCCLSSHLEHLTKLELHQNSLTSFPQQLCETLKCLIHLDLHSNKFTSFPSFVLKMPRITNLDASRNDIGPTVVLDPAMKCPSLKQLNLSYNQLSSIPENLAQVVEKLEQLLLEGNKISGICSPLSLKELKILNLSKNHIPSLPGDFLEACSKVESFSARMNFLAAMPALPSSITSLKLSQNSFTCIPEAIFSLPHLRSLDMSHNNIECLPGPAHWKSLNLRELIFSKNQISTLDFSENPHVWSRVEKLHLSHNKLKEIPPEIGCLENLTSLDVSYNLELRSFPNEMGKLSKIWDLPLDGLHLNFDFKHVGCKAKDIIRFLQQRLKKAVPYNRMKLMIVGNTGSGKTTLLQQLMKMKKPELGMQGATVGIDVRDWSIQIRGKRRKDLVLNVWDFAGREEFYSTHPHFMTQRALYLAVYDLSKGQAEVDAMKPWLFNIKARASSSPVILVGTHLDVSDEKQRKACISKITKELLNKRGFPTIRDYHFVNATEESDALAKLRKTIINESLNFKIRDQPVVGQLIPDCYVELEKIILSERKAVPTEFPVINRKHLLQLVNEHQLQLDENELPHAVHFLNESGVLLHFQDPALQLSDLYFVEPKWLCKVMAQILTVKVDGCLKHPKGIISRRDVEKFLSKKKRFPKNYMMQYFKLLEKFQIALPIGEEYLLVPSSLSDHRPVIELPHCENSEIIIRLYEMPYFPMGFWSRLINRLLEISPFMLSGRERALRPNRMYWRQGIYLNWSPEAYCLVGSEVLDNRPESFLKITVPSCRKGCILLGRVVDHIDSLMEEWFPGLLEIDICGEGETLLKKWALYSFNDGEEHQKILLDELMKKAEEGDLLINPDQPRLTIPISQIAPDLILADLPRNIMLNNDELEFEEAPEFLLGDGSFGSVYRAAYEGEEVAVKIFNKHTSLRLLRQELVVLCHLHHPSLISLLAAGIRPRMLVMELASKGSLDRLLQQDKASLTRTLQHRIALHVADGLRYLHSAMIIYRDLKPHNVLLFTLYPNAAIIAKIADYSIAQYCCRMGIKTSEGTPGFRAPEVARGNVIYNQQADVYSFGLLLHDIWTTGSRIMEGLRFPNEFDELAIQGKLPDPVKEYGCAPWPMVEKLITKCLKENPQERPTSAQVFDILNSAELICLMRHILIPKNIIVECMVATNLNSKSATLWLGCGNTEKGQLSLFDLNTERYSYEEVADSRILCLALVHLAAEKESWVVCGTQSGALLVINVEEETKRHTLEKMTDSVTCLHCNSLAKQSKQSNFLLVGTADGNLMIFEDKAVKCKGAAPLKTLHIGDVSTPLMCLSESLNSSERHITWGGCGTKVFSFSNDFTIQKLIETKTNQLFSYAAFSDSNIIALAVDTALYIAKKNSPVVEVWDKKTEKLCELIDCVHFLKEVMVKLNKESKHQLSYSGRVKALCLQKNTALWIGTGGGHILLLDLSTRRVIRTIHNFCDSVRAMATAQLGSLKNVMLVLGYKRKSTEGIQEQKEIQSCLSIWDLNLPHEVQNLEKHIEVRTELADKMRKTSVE
Experiment: Western blot LRRK2 degradation in LRRK2^G2019S MEFs
Assay type: cell-based
Details: dose response, 4 h treatment
Dear colleague, please return just the value in nM, with no unit written.

// solved cases for DC50 follow
[
  {
    "molecule": "CNc1nc(Nc2ccc(C(=O)N3CCN(C[C@H]4CC[C@H](CSC(C)(C)[C@H](NC(=O)C5(F)CC5)C(=O)N5C[C@H](O)CC5C(=O)NCc5ccc(-c6scnc6C)cc5C)CC4)CC3)cc2OC)ncc1Cl (stereo partly drawn)",
    "numeric-result": 23
  },
  {
    "molecule": "CNc1nc(Nc2ccc(C(=O)N3CCN(C[C@H]4CC[C@H](CSC(C)(C)[C@H](NC(=O)C5(F)CC5)C(=O)N5C[C@H](O)CC5C(=O)N[C@@H](C)c5ccc(-c6scnc6C)cc5)CC4)CC3)cc2OC)ncc1Cl (stereo partly drawn)",
    "numeric-result": 27
  }
]

Which measured DC50 value corresponds to CNc1nc(Nc2ccc(C(=O)N3CCN(C[C@H]4CC[C@H](CSC(C)(C)[C@H](NC(=O)C5(F)CC5)C(=O)N5C[C@H](O)CC5C(=O)NCc5ccc(-c6scnc6C)cc5F)CC4)CC3)cc2OC)ncc1Cl (stereo partly drawn) ? 60

Source listed as patent US20260001875A1.
